Taken from ChEMBL document CHEMBL2218924.

Target: Serine/threonine-protein kinase PAK 4 (Homo sapiens) (UniProt O96013)
Sequence (O96013 whole entry, looked up): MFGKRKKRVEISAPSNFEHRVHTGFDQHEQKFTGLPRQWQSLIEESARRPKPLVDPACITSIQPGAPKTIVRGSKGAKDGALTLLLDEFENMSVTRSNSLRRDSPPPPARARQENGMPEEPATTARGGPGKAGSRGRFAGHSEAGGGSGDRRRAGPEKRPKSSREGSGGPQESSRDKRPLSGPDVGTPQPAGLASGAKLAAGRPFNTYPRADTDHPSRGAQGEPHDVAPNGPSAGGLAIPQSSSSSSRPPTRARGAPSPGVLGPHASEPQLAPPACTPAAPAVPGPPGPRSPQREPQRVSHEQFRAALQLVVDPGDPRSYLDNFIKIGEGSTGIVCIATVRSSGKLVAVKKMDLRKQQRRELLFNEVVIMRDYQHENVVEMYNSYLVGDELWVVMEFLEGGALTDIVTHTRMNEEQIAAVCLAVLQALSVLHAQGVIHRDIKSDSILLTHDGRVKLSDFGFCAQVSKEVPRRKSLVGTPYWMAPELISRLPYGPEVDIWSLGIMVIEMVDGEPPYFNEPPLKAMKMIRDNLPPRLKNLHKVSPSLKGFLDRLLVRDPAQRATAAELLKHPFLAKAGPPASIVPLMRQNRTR
Conditions: at 1 µM
property measured: residual activity (%)
# output: bare number, implied unit %

Reference set, count: 3
# compound, property measured, obs value
rows = [
    ("COc1ccc(C(=O)Nc2sc3c(c2C(N)=O)CCCC3)cc1OC", "residual activity", 92),
    ("CO[C@@H]1[C@H](N(C)C(=O)c2ccccc2)C[C@H]2O[C@]1(C)n1c3ccccc3c3c4c(c5c6ccccc6n2c5c31)C(=O)NC4", "residual activity", 64),
    ("O=[N+]([O-])c1ccc(-c2nc(-c3ccc(F)cc3)c(-c3ccncc3)[nH]2)cc1", "residual activity", 108),
]

Query: Please respond with reported residual activity (system Serine/threonine-protein kinase PAK 4 (Homo sapiens) (UniProt O96013)) for `COc1ccc(CNc2nc(N(CCO)CCO)nc3c2ncn3C(C)C)cc1` .
Response: 89

Query: Provide the reported residual activity (system: Serine/threonine-protein kinase PAK 4 (Homo sapiens) (UniProt O96013)) for `Oc1n[nH]c2nnc(-c3c(-c4ccccc4)nn4ccccc34)cc12`
Response: 95

Query: Give reported residual activity for `COc1cc2ncnc(N3CCN(C(=O)Nc4ccc(Oc5ccccc5)cc4)CC3)c2cc1OC` (Serine/threonine-protein kinase PAK 4 (Homo sapiens) (UniProt O96013))
Response: 94

Query: Enter measured residual activity, system Serine/threonine-protein kinase PAK 4 (Homo sapiens) (UniProt O96013), for the compound shown: `COc1ccc(OC)c2c(=S)c3ccccc3[nH]c12`
Response: 95

Query: Enter residual activity (test system Serine/threonine-protein kinase PAK 4 (Homo sapiens) (UniProt O96013)) for `O=c1cc(-c2cccc3c2Sc2ccccc2S3)oc(N2CCOCC2)c1`
Response: 106

Query: Find residual activity for `CC#CC(=O)Nc1cc2c(Nc3ccc(F)c(Cl)c3)ncnc2cn1` on Serine/threonine-protein kinase PAK 4 (Homo sapiens) (UniProt O96013) and write it down.
Response: 99

Query: Fill in: residual activity on Serine/threonine-protein kinase PAK 4 (Homo sapiens) (UniProt O96013), entry `N#Cc1cnc2cnc(NCc3cccnc3)cc2c1Nc1ccc(F)c(Cl)c1`
Response: 65

Query: Lab note: Serine/threonine-protein kinase PAK 4 (Homo sapiens) (UniProt O96013) assay, enter residual activity for `CO[C@H]1[C@@H](OC)C[C@H](C)[C@@H](OC)C2=CC(=O)C=C(NC(=O)/C(C)=C/C=C/[C@H](OC)[C@@H](OC(N)=O)/C(C)=C/[C@@H]1C)C2=O` here
Response: 106

Query: Enter residual activity (test system Serine/threonine-protein kinase PAK 4 (Homo sapiens) (UniProt O96013)) for `CCOc1cc2ncnc(Nc3cccc(Br)c3)c2cc1OCC`
Response: 100

Query: Determine reported residual activity for `CCN(CC)CCCCN1c2ccccc2Oc2ccc(Cl)cc21` ; test system: Serine/threonine-protein kinase PAK 4 (Homo sapiens) (UniProt O96013).
Response: 107

Query: Tell me residual activity of `Oc1c2ccccc2c2c3c(cccc13)N=N2` when tested on Serine/threonine-protein kinase PAK 4 (Homo sapiens) (UniProt O96013).
Response: 88

Query: Retrieve residual activity on Serine/threonine-protein kinase PAK 4 (Homo sapiens) (UniProt O96013); query `CC(C)n1cnc2/c(=N/c3cccc(Cl)c3)nc(NCCO)[nH]c21`
Response: 62

Query: Under Serine/threonine-protein kinase PAK 4 (Homo sapiens) (UniProt O96013): report residual activity of `Cc1cc(Nc2nc(-c3ccccc3)nc3ccccc23)n[nH]1` .
Response: 9

Query: For Serine/threonine-protein kinase PAK 4 (Homo sapiens) (UniProt O96013), give residual activity of the listed compound: `Ic1cccc(CSc2nnc(-c3ccncc3)o2)c1`
Response: 91

Query: Quote Serine/threonine-protein kinase PAK 4 (Homo sapiens) (UniProt O96013) residual activity for entry `CC[n+]1c(/C=C/N(C)c2ccccc2)n(-c2ccccc2)c2ccc(-c3nc4ccccc4s3)cc21` .
Response: 103

Query: Provide residual activity, system Serine/threonine-protein kinase PAK 4 (Homo sapiens) (UniProt O96013), entry `Cn1cc(/C=C2\C(=O)Nc3ccc(S(N)(=O)=O)cc32)c2ccccc21`
Response: 28

Query: State residual activity (Serine/threonine-protein kinase PAK 4 (Homo sapiens) (UniProt O96013)) of `Cn1cnc2cc3c(Nc4cccc(Br)c4)ncnc3cc21` .
Response: 100

Query: Determine reported residual activity for `CO[C@H]1C[C@@H]2CC[C@@H](C)[C@@](O)(O2)C(=O)C(=O)N2CCCC[C@H]2C(=O)O[C@H]([C@H](C)C[C@@H]2CC[C@@H](O)[C@H](OC)C2)CC(=O)[C@H](C)/C=C(\C)[C@@H](O)[C@@H](OC)C(=O)[C@H](C)C[C@H](C)/C=C/C=C/C=C/1C` ; test system: Serine/threonine-protein kinase PAK 4 (Homo sapiens) (UniProt O96013).
Response: 89
